B1: 1ZHC (parent)
chain: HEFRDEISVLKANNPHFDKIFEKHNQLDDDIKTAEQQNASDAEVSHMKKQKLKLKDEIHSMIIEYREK

Variants of: B1
experimental.protocol: folding stability dG (cDNA display proteolysis); higher = more stable
test.parameters: PBS, room temperature
Class key for folding stability dG values: lower level (below 1 kJ/mol), middle level (1 kJ/mol to below 4 kJ/mol), upper level (4 kJ/mol or more)

Please classify: E6H
lower level

Textbook exercise: identify the category of the variant given here, S45Y , according to its measured value.
middle level

Would you mind sorting R66F into the appropriate category?
lower level

Band assignment needed for Q37H please.
upper level

Assign a category based on measured folding stability dG for E43L and give only the class name.
upper level

Hello team, could you let me know which band the following variant falls into: Q50F
middle level

State the band of N14H
lower level

Just checking, what class would you give K32E here?
lower level

Bin? S8M
upper level

Kindly state the category for this variant: S45N
upper level

Bin? R66V
middle level

Consider E6I . To which folding stability dG class does it belong?
upper level

# bin label for N14D
middle level

Band for the recorded folding stability dG of E67K ?
upper level

// return the class label for R4P
middle level

The entry to classify is K11S ; which class holds it?
lower level

Into which bin does this variant go? E57T
middle level

State the class of the variant shown: K48N
lower level

Please indicate the class for S40I based on its folding stability dG.
lower level

Which folding stability dG band matches Q37T ?
middle level

Using the reported folding stability dG, which band applies to Q26A ?
middle level
